- protocol_summary: Dissociation of chelates in aq. 6.0M HCl at 80° C. (acid decomplexation kinetic inertness) (Chart 17)
- Assay type: physicochemical
- condition_notes: 1 day
Listing: fraction of intact chelate of selected molecules
The answer is to be given in %; state only the numeric part.

molecule="O=C1C[N@@]2CC[N@]3CC[N@@](CC[N@](CC2)Cc2cccc(n2)-c2cnnn2Cc2cc(-c4ccccc4)cc(n2)C3)CC(=O)[O][Gd][O]1 [TD527]" measured_metric="fraction of intact chelate" assay_value=0

Exam item: Dear colleague, I am looking for the recorded fraction of intact chelate of the following molecule: O=C1C[N@@]2CC[N@]3CC[N@@](CC[N@](CC2)Cc2cccc(n2)-c2cnnn2Cc2cc(-c4ccccc4)cc(n2)C3)CC(=O)[O][Tb][O]1 [TD600]
Marked response: 0

Exam item: Dear colleague, I am looking for the recorded fraction of intact chelate of the following molecule: O=C1CN2CCN3CCN(CCN(CC2)Cc2cccc(n2)-c2cnnn2Cc2cccc(n2)C3)CP(=O)(O)[O][Lu][O]1 [TD734]
Marked response: 100

Exam item: Dear colleague, I am looking for the recorded fraction of intact chelate of the following molecule: NCc1nnn2c1-c1cccc(n1)C[N@]1CC[N@]3CC[N@@](CC[N@@](CC1)CC(=O)[O][Lu][O]C(=O)C3)Cc1cc(-c3ccccc3)cc(n1)C2 [TD735]
Marked response: 100

Exam item: Dear colleague, I am looking for the recorded fraction of intact chelate of the following molecule: O=C1C[N@@]2CC[N@]3CC[N@@](CC[N@](CC2)Cc2cccc(n2)-c2cnnn2Cc2cc(-c4ccccc4)cc(n2)C3)CC(=O)[O][Y][O]1 [TD649]
Marked response: 69

Exam item: Dear colleague, I am looking for the recorded fraction of intact chelate of the following molecule: O=C1C[N@@]2CC[N@]3CC[N@@](CC[N@](CC2)Cc2cccc(n2)-c2cnnn2Cc2cc(-c4ccccc4)cc(n2)C3)CC(=O)[O][Sm][O]1 [TD867]
Marked response: 0

---

Listing: conversion to 1,5-cz-[Ln(Lig)], Tm^III of selected compounds
- protocol_summary: Formation of 1,5-cz-[Ln(Lig)] from Lig and Ln^III ions (metal dependent click-zip), MOPS/NaOH buffer pH 7.0, analytical HPLC (Charts 1, 2)
- condition_notes: Tm^III; after 1 hour at 80° C.; MOPS/NaOH buffer pH 7.0
The answer is to be given in %; state only the numeric part.

// known answers, use as guide
record_smiles=C#Cc1cccc(CN2CCN(CC(=O)O)CCN(Cc3cc(-c4ccc(C(=O)O)cc4)cc(CN=[N+]=[N-])n3)CCN(CC(=O)O)CC2)n1 measured_metric="conversion to 1,5-cz-[Ln(Lig)], Tm^III" assay_value=48
record_smiles=[N-]=[N+]=NCc1cc(-c2ccccc2)cc(CN2CCN(CC(=O)O)CCN(Cc3cccc(C#CCN)n3)CCN(CC(=O)O)CC2)n1 measured_metric="conversion to 1,5-cz-[Ln(Lig)], Tm^III" assay_value=27
record_smiles=C#Cc1cccc(CN2CCN(CCC(=O)O)CCN(Cc3cccc(CN=[N+]=[N-])n3)CCN(CCC(=O)O)CC2)n1 measured_metric="conversion to 1,5-cz-[Ln(Lig)], Tm^III" assay_value=0

Please look at the following compound next.
Exam item: Dear colleague, I am looking for the recorded conversion to 1,5-cz-[Ln(Lig)], Tm^III of the following compound: "C#Cc1cccc(CN2CCN(CC(=O)O)CCN(Cc3cc(-c4ccccc4)cc(CN=[N+]=[N-])n3)CCN(CC(=O)O)CC2)n1"
Marked response: 48
